Every entry's value here was drawn from paper PMC7865891.

Test system: β-conglutin (lupin (species not stated))
test_summary: SPR
settings: 1:1 kinetic model, protein immobilized, PBS (10 mM phosphate, 135 mM NaCl, 2.7 mM KCl, pH 7.4) + 1.5 mM MgCl2, MST +0.05% Tween-20, 25 C (20 mM KCl for TT derivatives), BLI +0.1% Tween-20, 30 C
readout_name: Kd (µM)
Field: numeric (µM). Do not append units.

Example entries begin here.
The recorded Kd for entry TTGGTGGGGGTGG [TT-11-mer] equals 0.00728

The recorded Kd for entry TTGGTGGGGGTGGTT [TT-11-mer-TT] equals 0.0537

With those in mind, consider the next sequence.
The recorded Kd for entry GGTGGGGGTGGTT [11-mer-TT] equals 0.0849

----------
Test system: β-conglutin (lupin (species not stated))
test_summary: BLI
settings: 2:1 heterogeneous model, second KD; 30 C, 0.1% Tween-20; 5' TEG spacer; PBS (10 mM phosphate, 135 mM NaCl, 2.7 mM KCl, pH 7.4) + 1.5 mM MgCl2; MST +0.05% Tween-20, 25 C (20 mM KCl for TT derivatives); BLI +0.1% Tween-20, 30 C; SPR …
readout_name: Kd (nM)
Field: numeric (nM). Do not append units.

The recorded Kd for entry TTTTTTTTTTTTTTTGGTGGGGGTGG [Biotin-TEG-T15-11-mer] equals 23.3
